Test system: SF-539 CNS
Experiment: NCI-60 one-dose screen, 48 h (100 = growth as untreated, 0 = no growth, -100 = all killed)
Conditions: 10 µM unless noted
Compounds without any hit were thinned out: in the full panel of roughly 83,000, 20% have a hit.
Reported growth values follow for various molecules
Numeric only. Scale: %

Recorded growth, per entry:
molecule | growth / %
C[N+]1(C)C2CC[C@@H]1CC(OC(=O)C(O)c1ccccc1)C2 (some centres undefined) | 108
COc1c(Br)cc(C(c2cc(Br)c(OC)c(Br)c2)c2ccccc2C(=O)O)cc1Br | 92.2
COc1cc(/C=C/C(=O)CC(=O)/C=C/c2ccc(OC(=O)CCNC34CC5CC(CC(C5)C3)C4)c(OC)c2)ccc1OC(=O)CCNC12CC3CC(CC(C3)C1)C2 | -18.2
O=C(Oc1ccccc1)C(Br)C(Br)c1ccccc1 (centres undefined) | 110

Looking up C[C@]12CCC(=O)C=C1CCC1C2[C@@H](O)C[C@@]2(C)C1CC[C@]2(O)C(=O)COC(=O)CCC(=O)O (some centres undefined) , I see its growth listed as 97

Sure, the documented growth for `O=C(Nc1ccccc1OC(=O)c1ccccc1)c1ccccc1` is 95.7

Looking up `O[N+]1=CC=CCC1=S.On1ccccc1=S.[Zn]` , I see its growth listed as -64.8

// `C[C@H]1C(=O)N2c3ccccc3[C@@]3(O)C[C@@H](n4cnc5ccccc5c4=O)C(=O)N1[C@@H]23` : growth value = 101

Documented growth of `CCN1CCN(c2nc(NNC(=O)Cc3ccccc3)nc(N3CCN(C(c4ccccc4)c4ccccc4)CC3)n2)CC1` : 86.8

----------
Test system: NCI-H226 lung
Assay: NCI-60 one-dose screen, 48 h (100 = growth as untreated, 0 = no growth, -100 = all killed)
Details: 10 µM unless noted
This is part of a sample that, as a whole, favours compounds with a hit. Of some 83,000 tested, about 20% had one in any assay.
measurementLabel: growth (%)
Reply numerically in %, unit not repeated.

Solved cases (6 shown):
compound | unitOfMeasure | growth
O=c1ccn(C2CC=C(CO)O2)c(=O)[nH]1 (stereo not given) | % | 95.7
O=C(c1ccccc1)c1ccc(Oc2ccc([N+](=O)[O-])cc2[N+](=O)[O-])cc1 | % | 48.4
O=Cc1ccccc1C(=O)O | % | 100
CN1CCN(CCCCCN=c2cc3c(=O)n(CCCCCN4CCN(C)CC4)c(=O)c4c(NCCCCCN5CCN(C)CC5)cc5c(O)n(CCCCCN6CCN(C)CC6)c(=O)c2c5c4-3)CC1 | % | 0.125
Cc1cc(C)c(C(=O)c2cccs2)c(C)c1 | % | 99.8
COc1ccc2ncccc2c1Cc1c(OC)ccc2ncccc12 | % | 80

So the reported growth for `Cc1[nH]ccc2cc3nc4ccccc4c3cc12` , on NCI-H226 lung, turned out to be 27.2

# growth measured on NCI-H226 lung for item `O=C(Nc1nn2c(-c3cc(C(F)(F)F)cc(C(F)(F)F)c3)nnc2s1)C1CCCC1` = 9.1

growth on NCI-H226 lung for Cc1ccccc1NC(=O)NC(CC(N)=O)c1ccc2c(c1)nc(-c1cccc(Oc3ccc(C(C)(C)C)cc3)c1)n2CCCN1CCCCC1C (stereo not given) is 109

growth value, target or system NCI-H226 lung, for CCCCCCCCCCCCC1CCCC(C)C1 (stereo not given) : 99.8

Reading of growth for `COc1ccc(/C=C2/SC(=Nc3c(C)nn(-c4ccccc4)c3N)NC2=O)cc1` with NCI-H226 lung: 51.1

Measured on NCI-H226 lung, `COc1cccc(N2CCN(CC(=O)N3CCN(c4nnc(-c5ccc(Cl)cc5)c(-c5ccc(Cl)cc5)n4)CC3)CC2)c1` has a documented growth of 74.7

Known value: NCI-H226 lung growth of the compound `COc1ccc(C(=O)COc2ccc(/C=C3\Oc4ccc5ccccc5c4C3=O)cc2)cc1` equals 107
